Molecular target: F317L Bcr-abl (Ba/F3 cells) (Homo sapiens, UniProt P00519, F317L)
Construct: the other entry of the earlier key: BCR (P11274, Breakpoint cluster region protein)
Experiment: Proliferation of Ba/F3 cells expressing F317L Bcr-abl
pIC50: −log10 of the molar value.
Metric name: pIC50

Briefly, pIC50 measured for CCN1CCN(Cc2ccc(NC(=O)c3ccc(C)c(NC(=O)N(C)c4ncnc5[nH]ccc45)c3)cc2C(F)(F)F)CC1 : > 8.30

====

Target: B-RAF (Homo sapiens)
Sequence (P15056 whole entry): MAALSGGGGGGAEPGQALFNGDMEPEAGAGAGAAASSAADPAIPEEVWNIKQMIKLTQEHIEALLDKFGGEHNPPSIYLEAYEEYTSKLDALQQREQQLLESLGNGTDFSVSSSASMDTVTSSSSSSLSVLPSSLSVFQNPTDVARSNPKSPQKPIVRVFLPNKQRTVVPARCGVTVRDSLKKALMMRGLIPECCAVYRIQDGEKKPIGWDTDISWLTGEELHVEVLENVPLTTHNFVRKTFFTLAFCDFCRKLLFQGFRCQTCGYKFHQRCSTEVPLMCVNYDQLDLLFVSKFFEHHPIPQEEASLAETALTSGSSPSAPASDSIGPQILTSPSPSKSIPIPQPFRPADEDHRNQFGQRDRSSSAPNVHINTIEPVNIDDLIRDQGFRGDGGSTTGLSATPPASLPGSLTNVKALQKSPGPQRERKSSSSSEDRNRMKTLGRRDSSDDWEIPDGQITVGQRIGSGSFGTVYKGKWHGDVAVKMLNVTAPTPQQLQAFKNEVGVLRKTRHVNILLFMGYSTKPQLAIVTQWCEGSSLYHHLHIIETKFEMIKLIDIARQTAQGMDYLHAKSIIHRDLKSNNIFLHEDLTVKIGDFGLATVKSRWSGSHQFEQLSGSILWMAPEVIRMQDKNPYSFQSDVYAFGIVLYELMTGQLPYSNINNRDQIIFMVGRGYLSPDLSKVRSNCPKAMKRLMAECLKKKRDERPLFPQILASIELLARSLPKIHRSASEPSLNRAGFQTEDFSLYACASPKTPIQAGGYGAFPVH
Metric name: pIC50
Numbers only, as −log10 of the molar value.

Briefly, pIC50 measured for CCN1CCN(Cc2ccc(NC(=O)c3ccc(C)c(NC(=O)N(C)c4ncnc5[nH]ccc45)c3)cc2C(F)(F)F)CC1 : 7.00

====

Biological target: M351T Bcr-abl (Ba/F3 cells) (Homo sapiens, UniProt P00519, M351T)
Construct: the other entry of the earlier key: BCR (P11274, Breakpoint cluster region protein)
Assay: Proliferation of Ba/F3 cells expressing M351T Bcr-abl
pIC50: −log10 of the molar value.
Metric name: pIC50

Briefly, pIC50 measured for CCN1CCN(Cc2ccc(NC(=O)c3ccc(C)c(NC(=O)N(C)c4ncnc5[nH]ccc45)c3)cc2C(F)(F)F)CC1 [Example 4] : > 8.30
